assay: Pharmacokinetic profiles after p.o., i.p. and i.v. administration; type: in vivo, Wistar rats; conditions: Wistar, rat, plasma, iv; i.v. 50 mg/kg, rats; read-out: MRT, mean residence time
Readout: MRT (h)
// return numeric value only (unit: h, not printed)

Complete the entry with MRT for O=C(/C=C(/Br)C(=O)O)Nc1ccc(O)c(C(=O)O)c1 [Compound C1]
1.7

====

test: Pharmacokinetic profiles after p.o., i.p. and i.v. administration; assay type: in vivo, Wistar rats; conditions: Wistar, rat, plasma, iv, 50 mg/kg, i.v. 50 mg/kg, rats; read-out: t1/2e, elimination half-life (converted)
Readout: half-life

Provide measured half-life value, entry: O=C(/C=C(/Br)C(=O)O)Nc1ccc(O)c(C(=O)O)c1 [Compound C1]
~54 min

====

experiment: Pharmacokinetic profiles after p.o., i.p. and i.v. administration; format: in vivo, Wistar rats; details: Wistar, rat, plasma, po, 50 mg/kg, plasma, i.g. (p.o.) 50 mg/kg, 600 min, individual rats; read-out: Concentration (µg/mL), Rat 1-6
Readout: concentration at 600 min (µg/mL)
API: value field is a number in µg/mL; no unit string.

Provide concentration at 600 min value for the following compound: `O=C(/C=C(/Br)C(=O)O)Nc1ccc(O)c(C(=O)O)c1`
0

====

experiment: Distribution of C1 in tissues; format: in vivo, Wistar rats; details: male, Wistar, rat, po; p.o. 75 mg/kg, rats; read-out: time of maximum concentration in tissues and organs (converted)
Readout: Tmax (min)
// units = min; emit number, no label

Kindly indicate its recorded Tmax. Item: O=C(/C=C(/Br)C(=O)O)Nc1ccc(O)c(C(=O)O)c1 [Compound C1]
10

====

experiment: Pharmacokinetic profiles after p.o., i.p. and i.v. administration; type: in vivo, Wistar rats; details: Wistar, rat, plasma, ip, 75 mg/kg, plasma, i.p. 75 mg/kg, 360 min, individual rats; read-out: Concentration (µg/mL), Rat 1-6
Readout: concentration at 360 min (µg/mL)
# unit: µg/mL | format: bare number

Determine its reported concentration at 360 min: `O=C(/C=C(/Br)C(=O)O)Nc1ccc(O)c(C(=O)O)c1`
0

====

assay: Distribution of C1 in tissues; type: in vivo, Wistar rats; settings: male, Wistar, rat, heart, po, 75 mg/kg, Hearth, 6 h, p.o. 75 mg/kg, n = 3; read-out: Average Concentration
Readout: concentration at 6 h
Put down the number, then write its unit next to it.

Fill in concentration at 6 h for record O=C(/C=C(/Br)C(=O)O)Nc1ccc(O)c(C(=O)O)c1 [Compound C1]
2700 ng/mL

====

experiment: Pharmacokinetic profiles after p.o., i.p. and i.v. administration; assay type: in vivo, Wistar rats; conditions: Wistar, rat, plasma, iv; i.v. 50 mg/kg, rats; read-out: Vd, volume of distribution
Readout: Vd
State the result as a value with its unit after it.

Answer with reported Vd of `O=C(/C=C(/Br)C(=O)O)Nc1ccc(O)c(C(=O)O)c1`
5.2 L/kg

====

assay: Pharmacokinetic profiles after p.o., i.p. and i.v. administration; format: in vivo, Wistar rats; conditions: Wistar, rat, plasma, po, 50 mg/kg, i.g. (p.o.) 50 mg/kg, 180 min, n = 6
Readout: concentration at 180 min (ng/mL)
State just the number; it will be interpreted in ng/mL.

Please give the documented concentration at 180 min of `O=C(/C=C(/Br)C(=O)O)Nc1ccc(O)c(C(=O)O)c1`
1000

Recorded values, source paper PMC8617944.
